The measured values listed here are drawn from ChEMBL document CHEMBL2062453.

Measured growth at 10 µM values are reported for all entries that follow.
- Test system: LOX IMVI
- Assay protocol: Cytotoxicity against human LOXIMVI cells assessed as cell growth at 10 uM after 48 hrs by SRB assay relative to control
- Type: functional
- Assay setup: read-out: Activity
Report the value in % with no unit label.

Reported growth at 10 µM, molecule COC(=O)C(Cc1cnc[nH]1)NC(=O)CCCn1c(C)c(C)c2c1N=C(SC)N1CC(=O)N=C21 (centres undefined) : ____
92

---

- Test system: HT-29
- Assay protocol: Cytotoxicity against human HT-29 cells assessed as cell growth at 10 uM after 48 hrs by SRB assay relative to control
- Assay type: functional
- Assay setup: HT-29, 48 h, read-out: Activity
Readout name: growth at 10 µM (%)
Report the value in % with no unit label.

Some entries whose results are on file:
| Compound | growth at 10 µM (%) |
| --- | --- |
| CSC1=Nc2c(c(C)c(-c3ccccc3)n2CCCN2CCN(C)CC2)C2=NC(=O)CN12 | 98 |
| CCOC(=O)CCCn1c2c(c(C)c1-c1ccccc1)C1=NC(=O)CN1C(SC)=N2 | 103 |
| CSC1=Nc2c(c(C)c(-c3ccccc3)n2CCCN2CCCCC2)C2=NC(=O)CC(C)N12 (centres undefined) | 21 |
| CCOC(=O)CCCn1c(C)c(C)c2c1N=C(SC)N1CC(=O)N=C21 | 109 |

Reported growth at 10 µM, compound CSC1=Nc2c(c(C)c(-c3ccccc3)n2CCCCl)C2=NC(=O)CN12 : ____
23

Reported growth at 10 µM, compound CSC1=Nc2c(c(C)c(C)n2CCCC(=O)O)C2=NC(=O)CN12 : ____
108

Reported growth at 10 µM, compound CSC1=Nc2c(c(C)c(-c3ccccc3)n2CCCC(=O)O)C2=NC(=O)CN12 : ____
97

Reported growth at 10 µM, compound COC(=O)C(Cc1cnc[nH]1)NC(=O)CCCn1c(C)c(C)c2c1N=C(SC)N1CC(=O)N=C21 (centres undefined) : ____
96

Reported growth at 10 µM, compound CSC1=Nc2c(c(C)c(C)n2CCCC(=O)NCCc2cnc[nH]2)C2=NC(=O)CN12 : ____
95

---

- Tested on: OVCAR-4
- Assay protocol: Cytotoxicity against human OVCAR4 cells assessed as cell growth at 10 uM after 48 hrs by SRB assay relative to control
- Assay type: functional
- Assay setup: OVCAR-4, 48 h, read-out: Activity
Measured growth at 10 µM values are reported for all entries that follow.
Report the value in % with no unit label.

Reported growth at 10 µM, molecule CSC1=Nc2c(c(C)c(C)n2CCCC(=O)O)C2=NC(=O)CN12 : ____
104

Reported growth at 10 µM, molecule CSC1=Nc2c(c(C)c(-c3ccccc3)n2CCCC(=O)O)C2=NC(=O)CN12 : ____
92

Reported growth at 10 µM, molecule CCOC(=O)CCCn1c(C)c(C)c2c1N=C(SC)N1CC(=O)N=C21 : ____
100

Reported growth at 10 µM, molecule COC(=O)C(Cc1cnc[nH]1)NC(=O)CCCn1c(C)c(C)c2c1N=C(SC)N1CC(=O)N=C21 (centres undefined) : ____
90

---

- System: IGROV-1
- Assay protocol: Cytotoxicity against human IGROV1 cells assessed as cell growth at 10 uM after 48 hrs by SRB assay relative to control
- Assay type: functional
- Assay setup: IGROV-1, 48 h, read-out: Activity
Measured growth at 10 µM values are reported for all entries that follow.
Report the value in % with no unit label.

Some entries whose results are on file:
| Molecule | Output unit | growth at 10 µM |
| --- | --- | --- |
| CCOC(=O)CCCn1c(C)c(C)c2c1N=C(SC)N1CC(=O)N=C21 | % | 98 |
| CSC1=Nc2c(c(C)c(C)n2CCCC(=O)O)C2=NC(=O)CN12 | % | 101 |
| CSC1=Nc2c(c(C)c(-c3ccccc3)n2CCCN2CCCCC2)C2=NC(=O)CC(C)N12 (stereo not given) | % | 23 |
| COC(=O)C(Cc1cnc[nH]1)NC(=O)CCCn1c(C)c(C)c2c1N=C(SC)N1CC(=O)N=C21 (stereo not given) | % | 95 |

Okay, now this molecule:
Reported growth at 10 µM, molecule CCOC(=O)CCCn1c2c(c(C)c1-c1ccccc1)C1=NC(=O)CN1C(SC)=N2 : ____
105

---

- Test system: PC-3
- Assay protocol: Cytotoxicity against human PC3 cells assessed as cell growth at 10 uM after 48 hrs by SRB assay relative to control
- Assay type: functional
- Assay setup: PC-3, 48 h, read-out: Activity
Readout name: growth at 10 µM (%)
Report the value in % with no unit label.

Reported growth at 10 µM, compound CSC1=Nc2c(c(C)c(C)n2CCCC(=O)O)C2=NC(=O)CN12 : ____
98

Reported growth at 10 µM, compound CSC1=Nc2c(c(C)c(-c3ccccc3)n2CCCCl)C2=NC(=O)CN12 : ____
69

Reported growth at 10 µM, compound CCOC(=O)CCCn1c2c(c(C)c1-c1ccccc1)C1=NC(=O)CN1C(SC)=N2 : ____
93

Reported growth at 10 µM, compound CCOC(=O)CCCn1c(C)c(C)c2c1N=C(SC)N1CC(=O)N=C21 : ____
103

Reported growth at 10 µM, compound CSC1=Nc2c(c(C)c(-c3ccccc3)n2CCCC(=O)O)C2=NC(=O)CN12 : ____
94

Reported growth at 10 µM, compound CSC1=Nc2c(c(C)c(C)n2CCCC(=O)NCCc2cnc[nH]2)C2=NC(=O)CN12 : ____
100

Reported growth at 10 µM, compound COC(=O)C(Cc1cnc[nH]1)NC(=O)CCCn1c(C)c(C)c2c1N=C(SC)N1CC(=O)N=C21 (configuration not stated) : ____
88

---

- Test system: NCI-H23
- Assay protocol: Cytotoxicity against human NCI-H23 cells assessed as cell growth at 10 uM after 48 hrs by SRB assay relative to control
- Format: functional
- Assay setup: NCI-H23, 48 h, read-out: Activity
Readout name: growth at 10 µM (%)
Report the value in % with no unit label.

| Compound | Output unit | Value |
| --- | --- | --- |
| COC(=O)C(Cc1cnc[nH]1)NC(=O)CCCn1c(C)c(C)c2c1N=C(SC)N1CC(=O)N=C21 (centres undefined) | % | 109 |
| CSC1=Nc2c(c(C)c(C)n2CCCC(=O)NCCc2cnc[nH]2)C2=NC(=O)CN12 | % | 103 |
| CSC1=Nc2c(c(C)c(C)n2CCCC(=O)O)C2=NC(=O)CN12 | % | 109 |
| CCOC(=O)CCCn1c(C)c(C)c2c1N=C(SC)N1CC(=O)N=C21 | % | 117 |
| CSC1=Nc2c(c(C)c(-c3ccccc3)n2CCCCl)C2=NC(=O)CN12 | % | 78 |
| CSC1=Nc2c(c(C)c(-c3ccccc3)n2CCCN2CCCCC2)C2=NC(=O)CC(C)N12 (centres undefined) | % | 63 |

Reported growth at 10 µM, compound CSC1=Nc2c(c(C)c(-c3ccccc3)n2CCCC(=O)O)C2=NC(=O)CN12 : ____
105

Reported growth at 10 µM, compound CSC1=Nc2c(c(C)c(-c3ccccc3)n2CCCN2CCN(C)CC2)C2=NC(=O)CN12 : ____
94

Reported growth at 10 µM, compound CCOC(=O)CCCn1c2c(c(C)c1-c1ccccc1)C1=NC(=O)CN1C(SC)=N2 : ____
110

---

Measured growth at 10 µM values are reported for all entries that follow.
- System: SNB-19
- Assay protocol: Cytotoxicity against human SNB19 cells assessed as cell growth at 10 uM after 48 hrs by SRB assay relative to control
- Format: functional
- Assay setup: SNB-19, 48 h, read-out: Activity
Report the value in % with no unit label.

Some entries whose results are on file:
| Molecule | growth at 10 µM, % |
| --- | --- |
| CSC1=Nc2c(c(C)c(-c3ccccc3)n2CCCN2CCCCC2)C2=NC(=O)CC(C)N12 (centres undefined) | 20 |
| CSC1=Nc2c(c(C)c(C)n2CCCC(=O)NCCc2cnc[nH]2)C2=NC(=O)CN12 | 102 |
| COC(=O)C(Cc1cnc[nH]1)NC(=O)CCCn1c(C)c(C)c2c1N=C(SC)N1CC(=O)N=C21 (centres undefined) | 94 |
| CSC1=Nc2c(c(C)c(-c3ccccc3)n2CCCN2CCN(C)CC2)C2=NC(=O)CN12 | 96 |

Reported growth at 10 µM, molecule CSC1=Nc2c(c(C)c(-c3ccccc3)n2CCCC(=O)O)C2=NC(=O)CN12 : ____
104

Reported growth at 10 µM, molecule CCOC(=O)CCCn1c(C)c(C)c2c1N=C(SC)N1CC(=O)N=C21 : ____
108

Reported growth at 10 µM, molecule CSC1=Nc2c(c(C)c(C)n2CCCC(=O)O)C2=NC(=O)CN12 : ____
107

Reported growth at 10 µM, molecule CSC1=Nc2c(c(C)c(-c3ccccc3)n2CCCCl)C2=NC(=O)CN12 : ____
81

Reported growth at 10 µM, molecule CCOC(=O)CCCn1c2c(c(C)c1-c1ccccc1)C1=NC(=O)CN1C(SC)=N2 : ____
106
